B1: CPEB3 Ribozyme (parent)
chain: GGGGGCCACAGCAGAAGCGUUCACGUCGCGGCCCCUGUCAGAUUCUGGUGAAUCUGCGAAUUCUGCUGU

Variants of: B1
Assay: self-cleavage, relative activity (ratio to wild type); higher = more cleavage; co-transcriptional
Parameter threshold = 0.2. Response is Condition met when self-cleavage meets or exceeds it, else Condition not met.

> print(dat)
   residue.change         class.name
1        G5A U43G      Condition met
2       U21G C24A  Condition not met
3        A8G G31A      Condition met
4        G3A G41U      Condition met
5        G1U U21C  Condition not met
6       C18G A60U  Condition not met
